test: amyloid nucleation score (Sup35N fusion, yeast selection) (log enrichment); library NNK1; higher = more nucleation; inactive = no reads after selection;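 also: zero at mode of non-aggregating sequences after 7 days selection at 30°C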
quantityMeasured: amyloid nucleation score
Give bare numbers.

Example results:
WYKMSRRGQ	0.857
ESPHYFTLTCV	-0.036
EIWPFMPRDHPMNALIYVSR	1.34

Give one value of amyloid nucleation score per listed substance.
1. GAIEASLVYRISNFKAGFAP
2. HSAGVVDALRCYNFYV
3. QWGRMPMFLIDRTGGWASMG
4. DLKFHLLIWVCRIGSDKNVK
5. PGNGTGVSTDGWVTLMHRRR
6. ILEFDDKKVLNLVEGKLLGA
7. VGEQSCLLFYMKQ

[A]
1: 1.91; 2: -0.102; 3: 0.409; 4: 0.071; 5: -0.709; 6: -0.383; 7: 0.247

Give one value of amyloid nucleation score per listed substance.
1. IGAHRNRIWIWYCPVVPNAT
2. ANRYRVLKE
3. CHVSLYRMDIGLQYRTGRIW
4. PTETVMMRRIFGSRGPWYAV
5. MFIASGV

[A]
1. 3.1
2. 3.88
3. 0.645
4. 0.286
5. -1.65

FYI, the data here is from the supplement of paper PMC12042874.
